Assay: Permeability in CALU-3 cells
Assay type: in vitro ADME
Conditions: human; basal-to-apical, CALU-3 monolayers, pH 7.4, 37° C., 10 μM compound
For each of the molecules below, state its Papp B→A at 90 min, 10 μM.
Numbers only, in ×10⁻⁶ cm/s.

Worked cases, answers included:
q: May I ask what Papp B→A at 90 min, 10 μM has been recorded for CC[n+]1c(CNC(=O)c2nc(Cl)c(N)nc2N)n(C[C@@H]2CCCO2)c2cc(OCC(=O)N3CC[S+]([O-])CC3)ccc21.O=C([O-])C(F)(F)F [Example 1.01] ?
a: 0.08

q: Follow-up item: CC[n+]1c(CNC(=O)c2nc(Cl)c(N)nc2N)n(CCOCCn2ccccc2=O)c2cc(OCP(C)(C)=O)ccc21.O=C([O-])C(F)(F)F [Example 1.03]
a: 0.07

Record Papp B→A at 90 min, 10 μM for all entries; do not skip any.
1. CCn1c(CNC(=O)c2nc(Cl)c(N)nc2N)[n+](Cc2cccc(C(=O)N3CC[S+]([O-])CC3)c2)c2ccc(OCCO)cc21.O=C([O-])C(F)(F)F [Example 1.08]
2. CC[n+]1c(CNC(=O)c2nc(Cl)c(N)nc2N)n(CC2CCOCC2)c2cc(OCCC[n+]3cc([O-])cc(OC)c3)c(Cl)cc21.O=C([O-])C(F)(F)F [Example 1.13]
3. C[n+]1c(CNC(=O)c2nc(Cl)c(N)nc2N)n(C[C@@H]2CCCO2)c2cc(OCCO)ccc21.O=C([O-])C(F)(F)F [Example 1.04]
4. CCn1c(CNC(=O)c2nc(Cl)c(N)nc2N)[n+](Cc2cccnc2)c2ccc(OCC(=O)N(C)C)cc21.O=C([O-])C(F)(F)F [Example 1.02]
5. CC[n+]1c(CNC(=O)c2nc(Cl)c(N)nc2N)n(C[C@@H]2CCCO2)c2cc(OCC(=O)NCc3ccccn3)ccc21.O=C([O-])C(F)(F)F [Example 2.01]

a:
[0.09, 0.1, 0.2, 0.2, 0.05]

###

Biological target: ENaC (Epithelial Sodium Channel) (Mus musculus, UniProt Q61180+Q9WU38+Q9WU39)
Construct: Mouse kidney M-1 cells were cultivated in DMEM; endogenous in cells; host or cells: mouse kidney M-1 cells (cortical collecting duct line), dexamethasone-treated, grown on transwell filters
Test: Ussing Chamber assay: inhibition of amiloride sensitive short circuit current in M-1 cells
Format: cell-based
Details: Ussing chamber, mouse kidney M-1 cells, short circuit current, apical administration, 37° C.; read-out: IC50
Description: Ussing Chamber: Mouse kidney M-1 cells were cultivated in DMEM containing 5% FCS and 5 μM dexamethasone for 10 to 12 days on polyester transwell filters. Filters were inserted into a teflon-coated well-plate which fit into the ussing chamber system. […] Short circuit currents (I_sc) were measured in the voltage-clamp mode with the software package Lab View for data acquisition and analysis. […] Results are expressed as inhibition in percent of the amiloride effect or as IC50.
pIC50: −log10 of the molar value.
Label true when pIC50 >= 8; otherwise false.

Some solved cases for reference:
q: Can CC[n+]1c(CNC(=O)c2nc(Cl)c(N)nc2N)n(CCOCCN2CCCCC2=O)c2cc(OCP(C)(C)=O)ccc21 [Example 1.16] be said to have pIC50 at or above 8?
a: false

q: Follow-up item: CC[n+]1c(CNC(=O)c2nc(Cl)c(N)nc2N)n(C[C@@H]2CCCO2)c2cc(OCC(=O)N3C[C@@H](O)[C@H](O)C3)ccc21 [Example 1.15]
a: true

q: Follow-up item: CC[n+]1c(CNC(=O)c2nc(Cl)c(N)nc2N)n(CCCCP(=O)([O-])O)c2cc(O)ccc21 [Example 7.01]
a: false

q: Follow-up item: CC[n+]1c(CNC(=O)c2nc(Cl)c(N)nc2N)n(CCOCCn2ccccc2=O)c2cc(OCP(C)(C)=O)ccc21.O=C([O-])C(F)(F)F [Example 1.03]
a: false

Kindly review the next compound as well.
q: Can CCn1c(CNC(=O)c2nc(Cl)c(N)nc2N)[n+](CC2CCOCC2)c2ccc(OCC(=O)N(C)Cc3nc(C)ccc3[O-])cc21 [Example 1.06] be said to have pIC50 at or above 8?
a: true

###

Target: ENaC (Epithelial Sodium Channel) (Mus musculus, UniProt Q61180+Q9WU38+Q9WU39)
Construct: Mouse kidney M-1 cells were cultivated in DMEM; endogenous in cells; host or cells: mouse kidney M-1 cells (cortical collecting duct line), dexamethasone-treated, grown on transwell filters
Sequence (Q61180 1-699): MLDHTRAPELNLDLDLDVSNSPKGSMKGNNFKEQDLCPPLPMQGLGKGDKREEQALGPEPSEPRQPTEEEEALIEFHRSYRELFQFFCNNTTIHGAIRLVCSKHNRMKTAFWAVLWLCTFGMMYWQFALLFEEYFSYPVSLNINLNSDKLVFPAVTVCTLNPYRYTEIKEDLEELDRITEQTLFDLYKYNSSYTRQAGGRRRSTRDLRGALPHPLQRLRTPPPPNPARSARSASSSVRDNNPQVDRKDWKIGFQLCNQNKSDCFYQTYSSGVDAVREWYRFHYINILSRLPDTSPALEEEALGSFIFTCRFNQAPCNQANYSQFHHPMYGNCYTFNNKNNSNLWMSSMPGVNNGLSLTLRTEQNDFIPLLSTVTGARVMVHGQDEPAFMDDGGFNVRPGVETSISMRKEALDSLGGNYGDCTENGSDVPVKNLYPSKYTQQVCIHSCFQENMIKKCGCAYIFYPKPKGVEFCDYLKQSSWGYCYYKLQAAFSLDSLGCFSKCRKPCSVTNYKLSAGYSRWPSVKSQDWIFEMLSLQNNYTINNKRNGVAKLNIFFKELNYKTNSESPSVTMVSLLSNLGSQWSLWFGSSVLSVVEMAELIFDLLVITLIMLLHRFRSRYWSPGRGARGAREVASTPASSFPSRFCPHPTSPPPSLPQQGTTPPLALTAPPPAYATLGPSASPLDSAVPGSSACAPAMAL
Sequence (Q9WU38 1-638): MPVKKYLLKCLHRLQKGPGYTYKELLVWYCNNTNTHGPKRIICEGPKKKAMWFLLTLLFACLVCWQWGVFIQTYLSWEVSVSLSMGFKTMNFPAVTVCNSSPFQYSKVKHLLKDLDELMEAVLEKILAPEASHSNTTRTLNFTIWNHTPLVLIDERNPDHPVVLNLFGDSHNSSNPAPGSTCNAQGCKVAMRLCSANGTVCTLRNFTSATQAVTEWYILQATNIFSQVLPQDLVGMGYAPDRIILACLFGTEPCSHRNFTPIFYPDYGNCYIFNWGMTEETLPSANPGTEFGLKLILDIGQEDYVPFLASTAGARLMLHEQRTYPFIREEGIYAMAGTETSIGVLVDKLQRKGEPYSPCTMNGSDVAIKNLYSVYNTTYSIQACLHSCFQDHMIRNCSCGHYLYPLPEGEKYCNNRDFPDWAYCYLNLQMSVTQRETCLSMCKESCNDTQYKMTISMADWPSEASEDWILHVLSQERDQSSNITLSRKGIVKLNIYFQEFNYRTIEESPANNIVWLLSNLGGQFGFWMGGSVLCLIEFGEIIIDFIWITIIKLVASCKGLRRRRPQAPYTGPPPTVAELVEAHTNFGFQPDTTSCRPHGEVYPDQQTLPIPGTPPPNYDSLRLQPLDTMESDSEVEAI
Sequence (Q9WU39 1-655): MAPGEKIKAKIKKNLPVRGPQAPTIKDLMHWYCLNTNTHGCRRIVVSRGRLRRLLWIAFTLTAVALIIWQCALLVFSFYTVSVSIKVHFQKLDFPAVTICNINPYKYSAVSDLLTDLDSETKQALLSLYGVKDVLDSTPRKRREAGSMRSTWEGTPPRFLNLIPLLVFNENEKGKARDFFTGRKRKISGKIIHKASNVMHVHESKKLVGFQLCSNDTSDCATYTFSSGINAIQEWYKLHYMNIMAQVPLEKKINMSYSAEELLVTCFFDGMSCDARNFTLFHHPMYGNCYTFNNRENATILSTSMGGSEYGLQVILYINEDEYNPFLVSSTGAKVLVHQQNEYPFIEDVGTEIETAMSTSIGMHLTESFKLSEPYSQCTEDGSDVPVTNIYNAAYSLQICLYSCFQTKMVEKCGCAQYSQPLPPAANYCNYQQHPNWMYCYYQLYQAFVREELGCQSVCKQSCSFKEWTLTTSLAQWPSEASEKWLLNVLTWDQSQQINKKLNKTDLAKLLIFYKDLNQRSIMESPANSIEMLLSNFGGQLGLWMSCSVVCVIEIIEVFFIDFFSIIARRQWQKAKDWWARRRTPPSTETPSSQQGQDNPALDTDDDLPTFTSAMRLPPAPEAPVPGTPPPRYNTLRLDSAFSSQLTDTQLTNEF
Assay: Ussing Chamber assay: inhibition of amiloride sensitive short circuit current in M-1 cells
Format: cell-based
Settings: Ussing chamber, mouse kidney M-1 cells, short circuit current, apical administration, 37° C.; read-out: IC50
observed.property: IC50 (nM)
One number for each entry, in nM.

Record IC50 for all entries; do not skip any.
1. CCNC(=O)N1CCC(n2c(CNC(=O)c3nc(Cl)c(N)nc3N)[n+](CC)c3ccc(OCC(=O)O)cc32)CC1 [Example 5.01]
2. C[n+]1c(CNC(=O)c2nc(Cl)c(N)nc2N)n(C[C@@H]2CCCO2)c2cc(OCCO)ccc21.O=C([O-])C(F)(F)F [Example 1.04]
3. CC[n+]1c(CNC(=O)c2nc(Cl)c(N)nc2N)n(CCOCCn2cc(C(=O)N(C)C)ccc2=O)c2cc(OCCO)ccc21 [Example 1.11]
4. CCN(Cc1ncccc1[O-])C(=O)COc1ccc2c(c1)n(CC)c(CNC(=O)c1nc(Cl)c(N)nc1N)[n+]2CC1CCOCC1 [Example 1.17]
5. CCn1c(CNC(=O)c2nc(Cl)c(N)nc2N)[n+](Cc2cccnc2)c2ccc(OCC(=O)N(C)C)cc21.O=C([O-])C(F)(F)F [Example 1.02]
6. CC[n+]1c(CNC(=O)c2nc(Cl)c(N)nc2N)n(C[C@@H]2CCCO2)c2cc(OCC(=O)NCc3ccccn3)ccc21.O=C([O-])C(F)(F)F [Example 2.01]

a:
1. 18
2. 3
3. 26
4. 1
5. 6
6. 1
